System: NCI-H1688
Experiment: inhibition of cell viability relative to untreated control (fraction); higher = stronger growth inhibition, active = 0.5 or more
Conditions: 30 µM; 24 h
measured-endpoint: inhibition of cell viability
Answer with the value's number alone.

inhibition of cell viability recorded for this compound, C[N+](C)(C)CC(O)CC(=O)[O-] (stereo not drawn) [L(-)-Carnitine] , is 0.123

inhibition of cell viability recorded for this compound, `CC1(C)CC[C@]2(C(=O)O)CC[C@]3(C)C(=CC[C@@H]4[C@@]5(C)CC[C@H](O)[C@@](C)(CO)[C@@H]5CC[C@]43C)[C@@H]2C1` , is 0.274

inhibition of cell viability recorded for this compound, `Oc1ccc(/C=C/c2cc(O)cc(O)c2)cc1` , is 0.49

inhibition of cell viability recorded for this compound, NC(=O)c1cccnc1 [Nicotinamide] , is 0.0846

inhibition of cell viability recorded for this compound, `CC(C)(CO)[C@@H](O)C(=O)NCCC(=O)NCCSSCCNC(=O)CCNC(=O)[C@H](O)C(C)(C)CO` , is -0.262

inhibition of cell viability recorded for this compound, `C[C@@H]1CC[C@@]2(OC1)O[C@H]1C[C@H]3[C@@H]4CC=C5C[C@@H](O)CC[C@]5(C)[C@H]4CC[C@]3(C)[C@H]1[C@@H]2C` , is -0.279

inhibition of cell viability recorded for this compound, `COc1ccc(-c2coc3cc(O)ccc3c2=O)cc1` , is 0.0427

inhibition of cell viability recorded for this compound, Nc1ccccc1C(=O)CC(N)C(=O)O (stereo not drawn) , is -0.292
